# credit: PubChem BioAssay AID1159580

- measurement.description: chemical genetic growth profiling, strain panel (AID 1159580);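 also: tested at 20 µM; growth read once vehicle control cultures reached saturation at 30 °C; 1 = growth at the plate median or of vehicle wells; lower values mean less growth of the strain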
- cond: S. cerevisiae deletion strains, growth OD, locus YLR027C, strain aat2, active compounds read low
In all, about 5,500 compounds went through this assay and about 2,000 (36%) were called active. Roughly 18% stayed inconclusive and do not appear here. The list shows a part of the results.
Listed here: items and their measured normalized growth.
API note: the answer field is a bare number with no unit suffix.

// worked examples, normalized growth included
compound: C[C@@H]1CC[C@@]2(OC1)O[C@H]1CC3C4CC[C@H]5C[C@@H](O)CC[C@]5(C)C4CC[C@]3(C)[C@H]1[C@@H]2C (some centres undefined)
normalized growth: 0.988
//
compound: NS(=O)(=O)c1cc(C2(O)NC(=O)c3ccccc32)ccc1Cl (centres undefined)
normalized growth: 0.994
//
compound: Cc1cc(OC(=O)c2c(C)cc(O)cc2O)cc(O)c1C(=O)O
normalized growth: 0.99
//
compound: CCOC(=O)c1c(C)cc(OC)cc1O
normalized growth: 0.963
//
compound: CC(=O)[C@@]1(O)CCC2C3C[C@H](C)C4=CC(=O)C=CC4(C)[C@@]3(F)[C@@H](O)C[C@@]21C (some centres undefined)
normalized growth: 0.978

Reported normalized growth, compound `COc1ccc(-c2oc3c(CC=C(C)C)c(O[C@@H]4O[C@H](CO)[C@@H](O)[C@H](O)[C@H]4O)cc(O)c3c(=O)c2O[C@@H]2O[C@@H](C)[C@H](O)[C@@H](O)[C@H]2O)cc1` : ____
1.03

// lookup normalized growth for CCCC(C)(COC(N)=O)COC(=O)NC(C)C (centres undefined)
0.993

Any idea what normalized growth was measured for `CCOC(=O)c1c(C)cc(O)cc1O` ?
0.93

Given the entry `CC[n+]1c(-c2ccccc2)c2cc(N)ccc2c2ccc(N)cc21` , report its measured normalized growth.
0.979

Please report the recorded normalized growth for `COc1ccc(Cl)cc1C(=O)NCCc1ccc(S(=O)(=O)NC(=O)NC2CCCCC2)cc1` .
1.01

// returns reported normalized growth for input `CCCCCC(=O)Cc1cc(O)cc(O)c1C(=O)Oc1cc(CC(=O)CCCCC)c(C(=O)O)c(OC)c1`
0.922

Give the measured normalized growth of O=C(Cc1cccs1)NC1C(=O)N2C(C(=O)[O-])=C(C[n+]3ccccc3)CSC12 (centres undefined) .
0.989

Quick one: normalized growth of `CN1C[C@H](C(=O)N[C@]2(C)O[C@@]3(O)[C@@H]4CCCN4C(=O)[C@H](Cc4ccccc4)N3C2=O)C[C@@H]2c3cccc4[nH]cc(c34)C[C@H]21` ?
0.992

Recorded normalized growth of `COc1cc(OC)c2ccc(=O)oc2c1` , please.
0.977
